System: Hep3B
measurement_protocol: 48 h MTT dye reduction assay
Format: cell-based
measurement_context: Homo sapiens, Hep3B (FN) plate coating, read-out: IC50 Values
Measured IC50, listed per entry.

For orientation, consider the following solved cases.
molecule	observed_result
COc1cccc2c1C(=O)c1c(O)c3c(c(O)c1C2=O)C[C@@](O)(C(=O)CO)C[C@@H]3O[C@H]1C[C@H](N)[C@H](O)[C@H](C)O1 [Dox, doxorubicin]	> 400 µM
COc1cc([C@@H]2c3cc4c(cc3[C@@H](O[C@@H]3O[C@@H]5CO[C@@H](C)O[C@H]5[C@H](O)[C@H]3O)[C@H]3COC(=O)[C@H]23)OCO4)cc(OC)c1O [Etoposide, etoposide]	840 µM

Would you kindly look at the next entry?
Record lookup: for Hep3B, what IC50 belongs to O=c1[nH]cc(F)c(=O)[nH]1 [5-FU, 5-fluorouracil] ?
> 2 µM
